condition label: human
So I've got a bunch of molecules here, and I need their Hepatotoxicity (severe hepatitis) values.
// response body must contain only the number

[in] Fill in the blank: the reported Hepatotoxicity (severe hepatitis) of NC(CO)C(=O)NNCc1ccc(O)c(O)c1O (stereo not given) [BENSERAZIDE] is ____.
[out] 0

[in] Also, CN(C)CC(Oc1ccccc1)Oc1ccccc1 [MEDIFOXAMINE] please.
[out] 2

[in] Also, Cc1cc(NS(=O)(=O)c2ccc(N)cc2)nc(C)n1 [SULFISOMIDINE] please.
[out] 0

[in] Also, CN1CCN(C(=O)OC2c3nccnc3C(=O)N2c2ccc(Cl)cn2)CC1 (stereo not given) [ZOPICLONE] please.
[out] 0

[in] Also, CCCCC(C)(C)[C@H](O)/C=C/[C@H]1[C@H](C)CC(=O)[C@@H]1C/C=C\CCCC(=O)O [TRIMOPROSTIL] please.
[out] 0

---

condition label: human
parameter: Hepatotoxicity (steatosis)

[in] Fill in the blank: the reported Hepatotoxicity (steatosis) of O=c1[nH]cnc2c1ncn2[C@H]1CC[C@@H](CO)O1 is ____.
[out] 20

[in] Also, CC(=O)N1CCN(c2ccc(OCC3COC(Cn4ccnc4)(c4ccc(Cl)cc4Cl)O3)cc2)CC1 (centres undefined) please.
[out] 2

[in] Also, CC(=O)NC[C@H]1CN(c2ccc(N3CCOCC3)c(F)c2)C(=O)O1 please.
[out] 0

[in] Also, CO/N=C(\C(=O)N[C@@H]1C(=O)N2C(C(=O)O)=C(COC(N)=O)CS[C@H]12)c1ccco1 please.
[out] 0

[in] Also, CO/N=C(\C(=O)N[C@@H]1C(=O)N2C(C(=O)O)=C(CSc3cnns3)CS[C@H]12)c1csc(N)n1 please.
[out] 0

[in] Also, CN/C(=N/CCSCc1nc[nH]c1C)NC#N please.
[out] 0

[in] Also, O=C(O)COc1nn(Cc2ccccc2)c2ccccc12 please.
[out] 0

[in] Also, S=P(N1CC1)(N1CC1)N1CC1 please.
[out] 0

[in] Also, COc1ccc2c(c1)c(CC(=O)OCC(=O)O)c(C)n2C(=O)c1ccc(Cl)cc1 please.
[out] 0

---

condition label: human
parameter: Hepatotoxicity (cirrhosis)

[in] Fill in the blank: the reported Hepatotoxicity (cirrhosis) of CC1(C)S[C@@H]2[C@H](NC(=O)[C@H](NC(=O)N3CCNC3=O)c3ccccc3)C(=O)N2[C@H]1C(=O)O [AZLOCILLIN] is ____.
[out] 0

[in] Also, CN1CCN(C(=S)Nc2ccc(Nc3ccc([N+](=O)[O-])cc3)cc2)CC1 [AMOCARZINE] please.
[out] 0

[in] Also, CC(CN(C)C)CN1c2ccccc2Sc2ccc(C#N)cc21 (stereo not given) [CYAMEMAZINE] please.
[out] 0

[in] Also, Cc1oc(=O)oc1COC(=O)[C@@H]1N2C(=O)[C@@H](NC(=O)[C@H](N)c3ccccc3)[C@H]2SC1(C)C [LENAMPICILLIN] please.
[out] 0

[in] Also, NC(=O)c1cnccn1 [PYRAZINAMIDE] please.
[out] 0

[in] Also, O=C(CCCN1CCC(C(=O)c2ccc(F)cc2)CC1)c1ccc(F)cc1 [LENPERONE] please.
[out] 0

[in] Also, COCC(=O)Nc1c(I)c(C(=O)NCC(O)CO)c(I)c(C(=O)N(C)CC(O)CO)c1I (stereo not given) [IOPROMIDE] please.
[out] 0

[in] Also, CC1=C(/C=C/C(C)=C/C=C/C(C)=C/C(=O)Nc2ccc(O)cc2)C(C)(C)CCC1 [FENRETINIDE] please.
[out] 0

[in] Also, Nc1nc(-c2ccccc2)c(Br)c(=O)[nH]1 [BROPIRIMINE] please.
[out] 0

[in] Also, CN1C[C@H](CC#N)C[C@@H]2c3cccc4[nH]c(Cl)c(c34)C[C@H]21 [LERGOTRILE] please.
[out] 0

[in] Also, CO/N=C(\C(=O)N[C@@H]1C(=O)N2C(C(=O)[O-])=C(C[n+]3cccc4c3CCC4)CS[C@H]12)c1csc(N)n1 [CEFPIROME] please.
[out] 0

[in] Also, CO[C@@H]1C[C@](C)(O)Cc2cc3c(c(O)c21)C(=O)c1c(O)cc2c(c1C3=O)O[C@@H]1O[C@@]2(C)[C@H](O)[C@@H](N(C)C)[C@@H]1O [MENOGARIL] please.
[out] 0

[in] Also, CO/N=C(\C(=O)N[C@@H]1C(=O)N2C(C(=O)[O-])=C(C[N+]3(C)CCCC3)CS[C@H]12)c1csc(N)n1 please.
[out] 0

[in] Also, Nc1ccc(C(=O)O)c(O)c1 [AMINOSALICYLIC ACID] please.
[out] 0

[in] Also, CO[C@@H]1[C@@H](O[C@@H]2O[C@H](C)[C@@H](O[C@H]3C[C@@](C)(O)[C@@H](OC(=O)CC(C)C)[C@H](C)O3)[C@H](N(C)C)[C@H]2O)[C@@H](CC=O)C[C@@H](C)[C@@H](O)/C=C/C=C/C[C@@H](C)OC(=O)C[C@H]1OC(C)=O [JOSAMYCIN] please.
[out] 0
